Reference source: PubChem BioAssay (NCI)

growth reference
System: HOP-62 NSCLC
Assay: NCI-60 one-dose screen, 48 h (100 = growth as untreated, 0 = no growth, -100 = all killed)
Conditions: 10 µM
The panel holds about 83,000 compounds, 20% with a hit somewhere; the sample as a whole holds those more often.
Write it as a number; the unit % goes unstated.

Example entries and their recorded answers appear below.
- COMPOUND: "COc1ccc(-c2nn(-c3cccc(NC(=O)c4ccc(Cl)c(Cl)c4)c3)cc2-c2ccncc2)cc1Cl"
  growth / %: 94
- COMPOUND: "CN(C)c1ccc(N=C2C=CC(=O)c3ccccc32)cc1"
  growth / %: 82.5
- COMPOUND: "CCCCCCCCCCCCCCCCCCOCC(COCCOCC[N+]1(CCCCCC(=O)[O-])CCCC1)Oc1ncccn1 (stereo unspecified)"
  growth / %: 21.3
- COMPOUND: "CCN(CC)CCSCCN(CC)CC"
  growth / %: 108

Task: Requested read-out: growth. Entry: "Oc1[nH]c2cc(Cl)ccc2c1/C=c1/ccc2c(c1)N=C(c1cc(F)cc(F)c1)N=2"
Result: 25.3

Task: Can you handle CCCCCCN(CCCCCC)CC(O)c1ccc2c3c(cccc13)CC2 (stereo unspecified) next?
Result: 85.2

Task: Same thing, different compound: CC1(O)CCC2CC3OC3(C)CCC3OC3(C)CCC1C2(C)C (stereo unspecified)
Result: 98.8

Task: Do the same for "O=S(=O)(NCCCNc1nccc(-c2c(-c3ccc(F)cc3)nc3sccn23)n1)c1ccc2ccccc2c1" please
Result: 81.3
